target: GHSR1a (Homo sapiens, UniProt Q92847); assay: Calcium FLIPR assay, GHSR-1a antagonism (reduction of ghrelin response); details: HEK293/GHSR1a cells, ghrelin 10 nM
Sequence (Q92847 whole entry): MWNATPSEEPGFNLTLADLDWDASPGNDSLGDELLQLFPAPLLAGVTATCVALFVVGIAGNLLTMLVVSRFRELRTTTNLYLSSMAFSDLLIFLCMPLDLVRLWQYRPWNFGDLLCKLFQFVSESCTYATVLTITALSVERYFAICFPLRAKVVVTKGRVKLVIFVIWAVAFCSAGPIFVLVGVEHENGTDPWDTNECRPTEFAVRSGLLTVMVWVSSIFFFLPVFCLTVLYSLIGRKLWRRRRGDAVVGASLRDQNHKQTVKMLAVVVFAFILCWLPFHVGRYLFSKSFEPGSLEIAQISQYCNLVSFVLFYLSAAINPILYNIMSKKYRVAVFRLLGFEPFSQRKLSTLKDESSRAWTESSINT
Label Satisfied when IC50 is strictly below 0.01 µM; otherwise label Not satisfied.

In the record for CC(=O)N1CCC(N(C)C(=O)NC(C)c2ccc(-c3cncnc3)c(Cl)c2Cl)CC1 (stereo not shown) , is IC50 less than 0.01 µM? Not satisfied

In the record for CC(NC(=O)N(C)C1CCN(C)CC1)c1ccc(-c2cnc(NC(=O)C3CC3)nc2)c(Cl)c1Cl (stereo not shown) , is IC50 less than 0.01 µM? Not satisfied

In the record for COC(=O)/C=C/c1ccc(C(C)NC(=O)N(C)C2CCN(C)CC2)c(Cl)c1Cl (stereo not shown) , is IC50 less than 0.01 µM? Not satisfied

In the record for CC(NC(=O)N(C)C1CCN(C)CC1)c1ccc(C2OCCO2)c(Cl)c1Cl (stereo not shown) , is IC50 less than 0.01 µM? Not satisfied

In the record for CC(NC(=O)N(C)C1CCN(C)CC1)c1ccc(-c2c[nH]nn2)c(Cl)c1Cl (stereo not shown) , is IC50 less than 0.01 µM? Not satisfied

In the record for CC(NC(=O)N(C)C1CCN(C)CC1C)c1ccc(-c2cn[nH]c2)c(Cl)c1Cl (stereo not shown) , is IC50 less than 0.01 µM? Not satisfied

In the record for CC(NC(=O)N(C)C1CCN(C)CC1)c1ccc(-c2cnc(N3CCN(C)CC3)nc2)c(Cl)c1Cl (stereo not shown) , is IC50 less than 0.01 µM? Satisfied

In the record for CC(NC(=O)N(C)C1CCN(C)CC1)c1ccc(Cl)c(Cl)c1Cl (stereo not shown) , is IC50 less than 0.01 µM? Not satisfied

In the record for CC(=O)c1cncc(-c2ccc(C(C)NC(=O)N(C)C3CCN(C)CC3)c(Cl)c2Cl)c1 (stereo not shown) , is IC50 less than 0.01 µM? Not satisfied

In the record for CC(NC(=O)N(O)C1CCN(C)CC1)c1ccc(-c2cncnc2)c(Cl)c1Cl (stereo not shown) , is IC50 less than 0.01 µM? Not satisfied

In the record for CC(NC(=O)N(C)C1CCN(C)CC1)c1cnc(C#CC2CC2)c(Cl)c1Cl (stereo not shown) , is IC50 less than 0.01 µM? Not satisfied

In the record for CN1CCC(N(C)C(=O)NC(c2ccc(-c3cnccn3)c(Cl)c2Cl)C(F)(F)F)CC1 (stereo not shown) , is IC50 less than 0.01 µM? Satisfied

In the record for CC(NC(=O)N(C)C1CCN(C)CC1)c1ccc(-c2nccnc2F)c(Cl)c1Cl (stereo not shown) , is IC50 less than 0.01 µM? Not satisfied

In the record for CC(NC(=O)N(C)C1CCN(C)CC1)c1ccc(-c2cn[nH]c2)c2ccccc12 (stereo not shown) , is IC50 less than 0.01 µM? Not satisfied

In the record for CC(NC(=O)N(C)C1CCN(C)CC1)c1ccc(NC(=O)c2cccs2)c(Cl)c1Cl (stereo not shown) , is IC50 less than 0.01 µM? Satisfied

In the record for CN1CCC(N(C)C(=O)NC(C#N)c2ccc(-c3cncnc3)c(Cl)c2Cl)CC1 (stereo not shown) , is IC50 less than 0.01 µM? Not satisfied

---

assay: Metabolic Stability (M = Mouse); type: in vitro ADME
Readout label: Metabolic Stability M

Worked set:
CC(NC(=O)N(C)C1CCN(C)CC1)c1ccc(-c2cnccn2)c(Cl)c1Cl (centres unmarked) ... High H High M
CC(NC(=O)N(C)C1CCN(C)CC1)c1ccc(-c2ccccc2)c(Cl)c1Cl (centres unmarked) ... High H High M
CC(NC(=O)N(C)C1CCN(C)CC1)c1ccc(-c2ccncc2)c(Cl)c1Cl (centres unmarked) ... Medium H Medium M
CN1CCC(N(C)C(=O)NC(C#N)c2ccc(-c3ccsc3)c(Cl)c2Cl)CC1 (centres unmarked) ... Medium H Medium M
C#Cc1ccc(C(C)NC(=O)N(C)C2CCN(C)CC2)c(Cl)c1Cl (centres unmarked) [Compound H0603] ... High H High M
CC(NC(=O)N(C)C1CCN(C)CC1)c1ccc(-c2cccs2)c(Cl)c1Cl (centres unmarked) [Compound H0536] ... Medium H Medium M
CC(NC(=O)N(Cc1ccc(CO)cc1)C1CCN(C)CC1)c1ccc(-c2cccnc2)c(Cl)c1Cl (centres unmarked) ... Medium H Medium M
CC(NC(=O)N(C)C1CCN(C)CC1)c1ccc(-n2ccnn2)c(Cl)c1Cl (centres unmarked) ... High H High M
CN1CCC(N(C)C(=O)NC(CC2CC2)c2ccc(-c3cncc(N)c3)c(Cl)c2Cl)CC1 (centres unmarked) ... High
CC(NC(=O)N(C)C1CCN(C)CC1)c1ccc(-c2cncc(F)c2)c(Cl)c1Cl (centres unmarked) ... High H High M

Name the reported Metabolic Stability M value associated with the compound CC(O)c1ccc(-c2ccc(C(C)NC(=O)N(C)C3CCN(C)CC3)c(Cl)c2Cl)s1 (centres unmarked) Medium H Medium M

---

assay: Metabolic Stability (H = Human); type: in vitro ADME
Readout label: Metabolic Stability H

CC(NC(=O)N(C)C1CCN(C)CC1)c1ccc(-c2cnc3[nH]ncc3c2)c(Cl)c1Cl (centres unmarked) ... Medium
CC(NC(=O)N(C)C1CCN(C)CC1)c1ccc(-c2cccc(N)c2)c2ccccc12 (centres unmarked) ... Medium H Medium M
CC(NC(=O)N(C)C1CCN(C)CC1)c1ccc(Br)c2ccccc12 (centres unmarked) ... High
CN1CCC(N(C)C(=O)N[C@H](c2ccc(-c3cnccn3)c(Cl)c2Cl)C(F)(F)F)CC1 ... Medium
CC(NC(=O)N(C)C1CCN(C)CC1)c1ccc(-c2ccncc2)c(Cl)c1Cl (centres unmarked) ... Medium H Medium M

Next molecule, please.
Name the reported Metabolic Stability H value associated with the molecule Cc1cncc(-c2ccc(C(C)NC(=O)N(C)C3CCN(C)CC3)c(Cl)c2Cl)c1 (centres unmarked) Medium H Medium M

---

For each of the molecules below, state its EC50.
biological target: GHSR1a (Homo sapiens); assay: Calcium FLIPR assay, GHSR-1a agonism; conditions: HEK293/GHSR1a cells
Please state the figure in nM; there is no need to write the unit.

Name the reported EC50 value associated with the molecule CC(NC(=O)N(C)C1CCN(C)CC1)c1ccc(Nc2cccs2)c(Cl)c1Cl (centres unmarked) 600

Name the reported EC50 value associated with the molecule CC(NC(=O)N(C)C1CCN(C)CC1)c1ccc(NC(=O)c2cccs2)c(Cl)c1Cl (centres unmarked) 7

Name the reported EC50 value associated with the molecule CC(NC(=O)N(C)C1CCN(C)CC1)c1ccc(-c2ccc(F)nc2)c(Cl)c1Cl (centres unmarked) 130

Name the reported EC50 value associated with the molecule CC(NC(=O)N(C)C1CCN(C)CC1)c1ccc(-c2cccs2)c(Cl)c1Cl (single isomer, unassigned) [Compound H0564] 124

Name the reported EC50 value associated with the molecule CC(NC(=O)N(O)C1CCN(C)CC1)c1ccc(C(F)F)c(Cl)c1Cl (centres unmarked) 2

Name the reported EC50 value associated with the molecule CC(NC(=O)N(C)C1CCN(C)CC1)c1ccc(-c2cc(F)cc(F)c2)c(Cl)c1Cl (centres unmarked) 96

Name the reported EC50 value associated with the molecule CC(NC(=O)N(C)C1CCN(C)CC1)c1ccc(-c2ccc[nH]2)c(Cl)c1Cl (centres unmarked) 4

---

target: GHSR1a (Homo sapiens, UniProt Q92847); assay: Calcium FLIPR assay, GHSR-1a antagonism (reduction of ghrelin response); conditions: HEK293/GHSR1a cells, ghrelin 10 nM
Readout label: pIC50
Hey, just a heads up that pIC50 is the negative log base 10 of the concentration in molar.

Observed pIC50 on GHSR1a (Homo sapiens, UniProt Q92847) for C[C@H](NC(=O)N(C)C1CCN(C)C1)c1ccc(-c2cncc(F)n2)c(Cl)c1Cl (stereo partly shown) [Compound H0872] , please. 8.22

Observed pIC50 on GHSR1a (Homo sapiens, UniProt Q92847) for CC(NC(=O)N(C)C1CCN(C)CC1)c1ccc(C#CC2CC2)c(Cl)c1Cl (stereo not shown) [Compound H0764] , please. 8.00

Observed pIC50 on GHSR1a (Homo sapiens, UniProt Q92847) for CC(NC(=O)N(C)C1CCN(C)CC1)c1ccc(-c2cc(F)cc(CO)c2)c(Cl)c1Cl (stereo not shown) [Compound H0696] , please. 6.92

Observed pIC50 on GHSR1a (Homo sapiens, UniProt Q92847) for CC(NC(=O)N(C)C1CCN(C)CC1)c1ccc(C#Cc2cccs2)c(Cl)c1Cl (stereo not shown) [Compound H0737] , please. 7.89

Observed pIC50 on GHSR1a (Homo sapiens, UniProt Q92847) for CC(NC(=O)N(C)C1CCN(C)CC1)c1ccc(-c2cncc(N3CCCC3)c2)c(Cl)c1Cl (stereo not shown) [Compound H0719] , please. 6.11

Observed pIC50 on GHSR1a (Homo sapiens, UniProt Q92847) for CC(NC(=O)N(C)C1CCN(C)CC1)c1ccc(C#CC2CC2)c(Cl)c1Cl (single isomer, unassigned) [Compound H0818] , please. 8.77

Observed pIC50 on GHSR1a (Homo sapiens, UniProt Q92847) for CC(NC(=O)N(C)C1CCN(C)CC1)c1ccc(-c2cnc(Cl)nc2)c(Cl)c1Cl (stereo not shown) [Compound H0801] , please. 7.70

Observed pIC50 on GHSR1a (Homo sapiens, UniProt Q92847) for C[C@@H](NC(=O)N(C)C1CCN(C)CC1)c1ccc(-c2cncc(F)n2)c(Cl)c1Cl [Compound H0848] , please. 6.36

Observed pIC50 on GHSR1a (Homo sapiens, UniProt Q92847) for CC(NC(=O)N(C)C1CCN(C)CC1)c1ccc(NC(=O)Nc2cccs2)c(Cl)c1Cl (stereo not shown) [Compound H0784] , please. 6.28

Observed pIC50 on GHSR1a (Homo sapiens, UniProt Q92847) for CC(NC(=O)N(C)C1CCN(C)CC1)c1ccc(-c2cncc(-c3cccs3)c2)c(Cl)c1Cl (stereo not shown) [Compound H0717] , please. 6.40

Observed pIC50 on GHSR1a (Homo sapiens, UniProt Q92847) for CC(NC(=O)N(C)C1CCN(C)CC1)c1ccc(-c2cncc(C#N)n2)c(Cl)c1Cl (stereo not shown) [Compound H0788] , please. 7.06

Observed pIC50 on GHSR1a (Homo sapiens, UniProt Q92847) for CC(NC(=O)N(C)C1CCN(C)CC1)c1ccc(-c2cnc(C(N)=O)cn2)c(Cl)c1Cl (stereo not shown) [Compound H0760] , please. 5.21

Observed pIC50 on GHSR1a (Homo sapiens, UniProt Q92847) for CC(NC(=O)N(C)C1CCN(C)CC1)c1ccc(-c2cncc(-c3ncccn3)c2)c(Cl)c1Cl (stereo not shown) [Compound H0735] , please. 6.68

Observed pIC50 on GHSR1a (Homo sapiens, UniProt Q92847) for CC(NC(=O)N(C)C1CCN(C)CC1)c1ccc(CO)c(Cl)c1Cl (stereo not shown) [Compound H0633] , please. 8.52

Observed pIC50 on GHSR1a (Homo sapiens, UniProt Q92847) for CCON(C(=O)NC(CC1CC1)c1ccc(-c2cnccn2)c(Cl)c1Cl)C1CCN(C)CC1 (stereo not shown) [Compound H0752] , please. 7.00
